- TEST_TARGET: MtbDHFR (Mycobacterium tuberculosis, UniProt P9WNX1)
- Sequence (P9WNX1 whole entry): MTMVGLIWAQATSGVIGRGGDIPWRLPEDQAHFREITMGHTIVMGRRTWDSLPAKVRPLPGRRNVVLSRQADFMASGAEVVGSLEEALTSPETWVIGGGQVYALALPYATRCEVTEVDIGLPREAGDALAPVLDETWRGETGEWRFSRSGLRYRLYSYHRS
- METHOD_SUMMARY: biochemical
- Assay type: biochemical
- CONDITION_NOTES: IC50 (nM) MtbDHFR
OBSERVATION_TYPE: IC50 (nM)

>>> measurement("CCc1nc(N)nc(N)c1C#CCc1cc(OC)cc(-c2ccc(C(=O)O)cc2)c1")
460

###

- TEST_TARGET: HuDHFR (Homo sapiens)
- Construct: made in house
- Sequence (P00374 whole entry): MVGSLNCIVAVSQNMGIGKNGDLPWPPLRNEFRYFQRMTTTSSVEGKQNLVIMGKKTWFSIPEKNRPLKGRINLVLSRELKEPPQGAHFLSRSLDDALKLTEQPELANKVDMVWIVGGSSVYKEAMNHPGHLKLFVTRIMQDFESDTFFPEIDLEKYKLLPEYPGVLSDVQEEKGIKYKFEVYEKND
- METHOD_SUMMARY: Human DHFR enzyme inhibition (NADPH oxidation at 340 nm)
- Type: biochemical
- CONDITION_NOTES: triplicate, mean ± SD
OBSERVATION_TYPE: IC50 (nM)

>>> measurement("CCc1nc(N)nc(N)c1C#CCc1cc(OC)c(OC)c(-c2ccncc2)c1")
495

###

- Tested on: M. smegmatis (Overexpressing DHFR Strain 1)
- METHOD_SUMMARY: MIC against M. smegmatis overexpressing DHFR, strain 1
- CONDITION_NOTES: Mycolicibacterium smegmatis, read-out: MIC (µg/mL) M. smegmatis (Overexpressing DHFR Strain 1)
Listing of entries alongside the reported MIC.
OBSERVATION_TYPE: MIC (µg/mL)

>>> measurement("CCc1nc(N)nc(N)c1C#C[C@H](C)c1cc2c(c(-c3ccncc3)c1)OCO2 [UCP1098]")
64
>>> measurement("CCc1nc(N)nc(N)c1C#CC(C)c1cc(-c2cncn2C)ccc1OC (stereo not shown) [UCP1084]")
64
>>> measurement("CCc1nc(N)nc(N)c1C#CC(C)c1cc2c(c(-c3cncn3C)c1)OCO2 (stereo not shown) [UCP1102]")
64

###

- TEST_TARGET: UniProt P9WNX1
- METHOD_SUMMARY: biochemical
- Assay type: biochemical
- CONDITION_NOTES: triplicate, mean ± SD; read-out: IC50 (nM) MtbDHFR
OBSERVATION_TYPE: IC50 (nM)

>>> measurement("CCc1nc(N)nc(N)c1C#CCc1cc(OC)c(OC)c(-c2ccncc2)c1 [UCP1039]")
297

###

- TEST_TARGET: MtbDHFR (Mycobacterium tuberculosis, UniProt P9WNX1)
- METHOD_SUMMARY: biochemical
- Format: biochemical
OBSERVATION_TYPE: IC50 (nM)

>>> measurement("CCc1nc(N)nc(N)c1C#C[C@H](C)c1cc2c(c(-c3ccncc3)c1)OCO2")
206

###

# MIC per record follows
- Tested on: M. smegmatis (parent strain)
- METHOD_SUMMARY: MIC against M. smegmatis parent strain
- CONDITION_NOTES: Mycolicibacterium smegmatis, read-out: MIC (µg/mL) M. smegmatis (parent strain)
OBSERVATION_TYPE: MIC (µg/mL)

>>> measurement("CCc1nc(N)nc(N)c1C#CC(C)c1cc2c(c(-c3cncn3C)c1)OCO2 (stereo not shown)")
1
>>> measurement("CCc1nc(N)nc(N)c1C#C[C@H](C)c1cc2c(c(-c3ccncc3)c1)OCO2")
0.5
>>> measurement("CCc1nc(N)nc(N)c1C#CC(C)c1cc(-c2cncn2C)ccc1OC (stereo not shown)")
1
>>> measurement("CCc1nc(N)nc(N)c1C#CCc1cc(-c2ccc(C(=O)O)cc2)ccc1OC")
8

###

- Test system: M. tuberculosis ATCC 35801 (strain Erdman)
- METHOD_SUMMARY: Microtiter broth dilution MIC, Mtb Erdman
- CONDITION_NOTES: Table 1 panel
Note to self: use true only for MIC (μg/mL) Mtb Erdman readings below 4 µg/mL; a reading exactly at 4 µg/mL still gets false.

>>> classification("NNC(=O)c1ccncc1 [INH, Isoniazid, reference compound]")
"true"
>>> classification("CCc1nc(N)nc(N)c1C#CCc1cc(-c2ccc(C(=O)O)cc2)ccc1OC [UCP1106]")
"false"
>>> classification("CCc1nc(N)nc(N)c1C#C[C@H](C)c1cc(OC)cc(-c2ccc(C(=O)O)cc2)c1 [UCP1172]")
"true"
>>> classification("CCc1nc(N)nc(N)c1C#CCc1cc(OC)cc(-c2ccc(C(=O)O)cc2)c1 [UCP1175]")
"true"
>>> classification("CCc1nc(N)nc(N)c1C#C[C@H](C)c1cc2c(c(-c3ccncc3)c1)OCO2 [UCP1098]")
"false"
